The measurements presented in this section are drawn from ChEMBL document CHEMBL3797106.

concentration at 4 h overview
Experiment: Plasma concentration in Lewis rat at 1 mg/kg, po measured at 4 hrs
Format: ADME, organism-based
# value in nM; strip the unit string

// solved cases for concentration at 4 h follow
[
  {
    "compound.structure": "CC(F)(F)c1c(-c2nc(-c3ccc(CN4CC(C(=O)O)C4)cc3)no2)noc1-c1ccccc1",
    "concentration at 4 h [nM]": 1400
  },
  {
    "compound.structure": "Cc1c(-c2nc(-c3ccc(CN4CC(C(=O)O)C4)cc3)no2)noc1-c1ccccc1",
    "concentration at 4 h [nM]": 260
  }
]

Record CCCc1c(-c2nc(-c3ccc(CN4CC(C(=O)O)C4)cc3)no2)noc1CC(C)C . Reported concentration at 4 h: 1300

GET /value?item= CCc1c(-c2nc(-c3ccc(CN4CC(C(=O)O)C4)cc3)no2)noc1-c1ccccc1 &field=concentration at 4 h returns 320

Looking up CC(C)Cc1onc(-c2nc(-c3ccc(CN4CC(C(=O)O)C4)cc3)no2)c1C(F)(F)F , I found its concentration at 4 h recorded as 1600

Lab note: measured concentration at 4 h of O=C(O)C1CN(Cc2ccc(-c3noc(-c4cc(-c5ccccc5)on4)n3)cc2)C1 was 140

// CCCc1c(-c2nc(-c3ccc(CN4CC(C(=O)O)C4)cc3)no2)noc1-c1ccccc1 : concentration at 4 h value = 250

Please fill in: concentration at 4 h reported for O=C(O)C1CN(Cc2ccc(-c3noc(-c4onc(-c5ccccc5)c4C(F)(F)F)n3)cc2)C1 = 2100

concentration at 4 h recorded for this molecule, CC(C)(C)c1c(-c2nc(-c3ccc(CN4CC(C(=O)O)C4)cc3)no2)noc1-c1ccccc1 , is 520

For this molecule ( CCCCc1c(-c2nc(-c3ccc(CN4CC(C(=O)O)C4)cc3)no2)noc1-c1ccccc1 ), measured concentration at 4 h is 81

Given item O=C(O)C1CN(Cc2ccc(-c3noc(-c4noc(-c5ccccc5)c4C(F)(F)F)n3)cc2)C1 , the value recorded as its concentration at 4 h is 1100

The value of concentration at 4 h measured for the molecule CCCc1c(-c2ccccc2)noc1-c1nc(-c2ccc(CN3CC(C(=O)O)C3)cc2)no1 turned out to be 170

get_value(item= CC(C)Cc1c(-c2nc(-c3ccc(CN4CC(C(=O)O)C4)cc3)no2)noc1-c1ccccc1 , readout=concentration at 4 h) returns 190
